- system-tested: human ether-à-go-go-related gene (hERG) potassium channel (human, UniProt Q12809);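 further: peak tail current of the secondary pulse compared with the same well before compound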
- Sequence (Q12809 whole entry, looked up): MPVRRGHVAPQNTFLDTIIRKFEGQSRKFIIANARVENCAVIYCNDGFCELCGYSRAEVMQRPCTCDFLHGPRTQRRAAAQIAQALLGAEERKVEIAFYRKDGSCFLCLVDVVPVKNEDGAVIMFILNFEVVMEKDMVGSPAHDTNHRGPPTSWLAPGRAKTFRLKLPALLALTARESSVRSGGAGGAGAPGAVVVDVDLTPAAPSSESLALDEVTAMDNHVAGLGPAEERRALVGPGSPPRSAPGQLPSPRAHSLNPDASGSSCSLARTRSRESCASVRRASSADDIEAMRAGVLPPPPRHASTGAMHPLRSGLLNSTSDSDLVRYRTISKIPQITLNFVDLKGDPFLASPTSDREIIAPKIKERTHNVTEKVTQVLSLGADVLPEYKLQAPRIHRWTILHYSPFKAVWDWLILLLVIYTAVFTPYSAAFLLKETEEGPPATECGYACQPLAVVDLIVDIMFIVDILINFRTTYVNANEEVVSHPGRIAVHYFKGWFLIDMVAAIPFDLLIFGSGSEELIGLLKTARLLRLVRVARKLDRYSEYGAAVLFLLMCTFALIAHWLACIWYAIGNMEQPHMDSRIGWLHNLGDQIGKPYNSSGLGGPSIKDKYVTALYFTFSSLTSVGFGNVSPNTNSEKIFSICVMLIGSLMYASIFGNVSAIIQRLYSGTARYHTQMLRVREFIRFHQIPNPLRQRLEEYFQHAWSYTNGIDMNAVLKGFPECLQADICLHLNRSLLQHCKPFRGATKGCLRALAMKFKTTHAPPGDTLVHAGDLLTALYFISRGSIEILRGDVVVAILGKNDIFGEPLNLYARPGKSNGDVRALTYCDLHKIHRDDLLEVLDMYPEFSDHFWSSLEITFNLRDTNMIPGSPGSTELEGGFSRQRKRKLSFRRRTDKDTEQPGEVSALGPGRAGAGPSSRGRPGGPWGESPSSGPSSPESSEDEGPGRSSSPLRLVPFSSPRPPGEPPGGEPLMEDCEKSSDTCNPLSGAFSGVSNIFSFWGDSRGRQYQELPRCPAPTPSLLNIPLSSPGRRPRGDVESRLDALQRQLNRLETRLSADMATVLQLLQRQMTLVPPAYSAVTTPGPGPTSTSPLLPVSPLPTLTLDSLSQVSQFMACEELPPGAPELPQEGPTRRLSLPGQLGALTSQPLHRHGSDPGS
- experimental-protocol: primary screen, population patch clamp on CHO cells stably expressing hERG; higher = less effect of the substance
The campaign covered roughly 310,000 compounds. About 14,000 (4.5%) showed an effect of 50% or more. The effect is printed as a negative number. Shown is part of a subset that was picked to be rich in strong results.
compounds and their reported hERG current change (%, negative = inhibition) at 10uM
Give just the number in %; leave the unit off.

Worked examples, 4 compounds total:
compound=O=C(CSc1nnc(-c2cccs2)n1-c1ccccc1)NCc1ccc2c(c1)OCO2 value_observed=-43.7
compound=CC1=CC(=O)C=C(C)C1=NOc1ccc([N+](=O)[O-])cc1 value_observed=-3.45
compound=Cc1cccc(-n2ccnc2CN2CCC(CO)(Cc3ccccc3)CC2)c1 value_observed=-50.1
compound=CN(C)CCn1c(C(=O)Nc2ccccc2)cc2ccccc21.Cl value_observed=-58.9

Request: Look up hERG current change (%, negative = inhibition) at 10uM for this compound: CCOC(=O)Cc1csc(NC(=O)C(C)c2ccc([N+](=O)[O-])cc2)n1 (centres unmarked)
Response: -55.9

Request: Field request: hERG current change (%, negative = inhibition) at 10uM | item: O=C(CSc1nnc(-c2cccs2)n1Cc1ccccc1)NCc1ccc2c(c1)OCO2
Response: -75.8

Request: Which hERG current change (%, negative = inhibition) at 10uM reading was recorded for the compound CNC(=O)c1cc2cc(OC)ccc2n1CCN(C)C ?
Response: -11.6

Request: What value of hERG current change (%, negative = inhibition) at 10uM has been reported for the following compound? Cc1ccc(C(=O)NC(C(=O)Nc2ccccc2)c2ccccc2)cc1 (centres unmarked)
Response: 19.7

Request: Need hERG current change (%, negative = inhibition) at 10uM, item COc1cccc2cc(C(C)=O)oc12
Response: 15.5
